Hello, the source for this data is patent US20180066015A1, in case you need it.

- target-desc: Recombinant human hepsin (4776-SE-010, R&D Systems), activated (human, UniProt P05981)
- test: fluorogenic inhibition assay
Primed or numbered codes have the meaning given here. *: point of attachment. kt = C-terminal ketothiazole, c1csc(*)n1; kt″ = ketothiazole, c1csc(*)n1
readout-name: pKi
Note on units: pKi is unitless, being -log10 of a concentration expressed in mol/L.

Study these solved cases before continuing.
binder="Ac-KRLR-kt (SMILES CC(=O)N[C@@H](CCCCN)C(=O)N[C@@H](CCCNC(=N)N)C(=O)N[C@@H](CC(C)C)C(=O)N[C@@H](CCCNC(=N)N)C(=O)c1nccs1) [Ac-KRLR(SEQ ID NO: 8)-kt]" reading=9.24
binder="Ac-KHLR-{kt″} (SMILES CC(=O)N[C@@H](CCCCN)C(=O)N[C@@H](Cc1c[nH]cn1)C(=O)N[C@@H](CC(C)C)C(=O)N[C@@H](CCCNC(=N)N)C(=O)c1nccs1) [Ac-KHLR(SEQ ID NO: 2)-kt]" reading=9.39
binder="Ac-RQLR-kt (SMILES CC(=O)N[C@@H](CCCNC(=N)N)C(=O)N[C@@H](CCC(N)=O)C(=O)N[C@@H](CC(C)C)C(=O)N[C@@H](CCCNC(=N)N)C(=O)c1nccs1) [Ac-RQLR(SEQ ID NO: 6)-kt]" reading=9.55
binder="Ac-SKLR-kt (SMILES CC(=O)N[C@@H](CO)C(=O)N[C@@H](CCCCN)C(=O)N[C@@H](CC(C)C)C(=O)N[C@@H](CCCNC(=N)N)C(=O)c1nccs1) [Ac-SKLR(SEQ ID NO: 10)-kt]" reading=8.92

(Q) Given the binder Ac-SKFR-kt (SMILES CC(=O)N[C@@H](CO)C(=O)N[C@@H](CCCCN)C(=O)N[C@@H](Cc1ccccc1)C(=O)N[C@@H](CCCNC(=N)N)C(=O)c1nccs1) [Ac-SKFR(SEQ ID NO: 13)-kt] , what is its reported pKi?
(A) 8.07

(Q) // repeat for Ac-SHLR-kt (SMILES CC(=O)N[C@@H](CO)C(=O)N[C@@H](Cc1c[nH]cn1)C(=O)N[C@@H](CC(C)C)C(=O)N[C@@H](CCCNC(=N)N)C(=O)c1nccs1) [Ac-SHLR(SEQ ID NO: 11)-kt] and report
(A) 9.22

(Q) Also need Ac-SRLR-kt (SMILES CC(=O)N[C@@H](CO)C(=O)N[C@@H](CCCNC(=N)N)C(=O)N[C@@H](CC(C)C)C(=O)N[C@@H](CCCNC(=N)N)C(=O)c1nccs1) [Ac-SRLR(SEQ ID NO: 15)-kt] , thanks.
(A) 9.17

(Q) For Ac-WQLR-kt (SMILES CC(=O)N[C@@H](Cc1c[nH]c2ccccc12)C(=O)N[C@@H](CCC(N)=O)C(=O)N[C@@H](CC(C)C)C(=O)N[C@@H](CCCNC(=N)N)C(=O)c1nccs1) [Ac-WQLR(SEQ ID NO: 3)-kt] then?
(A) 9.68
